Values compiled from PubChem BioAssay.

Assay: TLR3 IRF3 reporter activation blockers – cell-based, poly I:C stimulus, luciferase, 10K MLSCN set, primary screen (AID 602277)
Conditions: HEK293-TLR3 RL24 IRF3 luciferase reporter, at 10 µM, stronger effect = higher value
property.label: inhibition (%)
One number for each entry, in %.

These recorded examples may help you get a feel for the data.
Please fill in: inhibition reported for "CC1CCN(Cc2ccc(NC(=O)C3CCN(c4nnc(-n5cccc5)s4)CC3)cc2)CC1" = 44

Please fill in: inhibition reported for "COc1ccc(-c2[nH]c(-c3cccc(OC)c3)nc2SCC(=O)NCc2ccco2)cc1" = 4.41

Please fill in: inhibition reported for "COc1ccc(NC(=O)c2cc(C(C)C)on2)c(OC)c1" = -63.9

Please fill in: inhibition reported for CC1=C(C(=O)NC2CCCC(C)C2C)C2(CCCCC2)OC1=O (centres undefined) = 17.7

Please fill in: inhibition reported for "N#Cc1nc(-c2ccco2)oc1NCc1ccco1" = -30.9

# map each compound to its inhibition
1. Cc1nc2c(C(=O)O)cnn2c(C)c1Cc1ccccc1F
2. CC1(C)COCN1S(=O)(=O)c1ccc(C(=O)Nc2nnc(-c3ccc(Cl)s3)o2)cc1
3. O=C(CN1CCN(c2ccccn2)CC1)N1c2ccccc2CCc2ccccc21
4. COc1ccc(-n2c(=O)c3c4c(sc3n3cnnc23)CC(C)CC4)cc1 (centres undefined)
5. O=C(Nc1nonc1NC(=O)C1CCCCC1)C1CCCCC1
6. Cc1nc2sc(C(c3cccc(F)c3)N3CCCCC3)c(O)n2n1 (centres undefined)

1. -3.96
2. 36.9
3. 15.9
4. 2.31
5. 22.8
6. 19.2

# map each compound to its inhibition
1. Cc1c(C(=O)NC2CC2)oc2ccc(S(=O)(=O)N3CCCCCC3)cc12
2. Nc1nc2n(n1)C(c1cccc(Br)c1)CC(c1ccccc1)N2 (centres undefined)
3. O=C(C1CCCO1)N1CCN(Cc2nc3ccccc3c(=O)[nH]2)CC1 (centres undefined)
4. C=CCn1c(-c2cccs2)nc2nc3ccccc3nc21
5. Cc1cc(O)c(-c2cc(C(=O)Nc3ccc(S(=O)(=O)N4CCOCC4)cc3)[nH]n2)cc1C
6. O=C(NC1CCCC1)C(c1cccs1)N(C(=O)c1ccno1)c1ccccc1 (centres undefined)
7. O=C(Cn1nnc(-c2ccc(CN3CCOCC3)cc2)n1)NC1CCCCC1

[-28.3, 37, 31, 2.94, -24.7, 21.8, 9.43]

# map each compound to its inhibition
1. O=C(O)Cn1nc2ccccc2n1
2. COc1ccc(-n2c(SCC#N)nc3ccccc3c2=O)cc1
3. O=C(NCc1cccs1)C1CCN(S(=O)(=O)c2cccs2)CC1
4. Cc1onc(-c2ccccc2)c1C(=O)Nc1sc2c(c1C(N)=O)CCC2

1: 11.8; 2: -76.1; 3: 15; 4: -31.8

###

Field: nuclei count. Provide a value for each of the compounds that follow.
Assay: endothelial E-selectin expression blockers – imaging, HUVEC, immunofluorescence, MLSMR starter and 10KST1 sets, primary screen (AID 487);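 also: 100% = median nuclei count of all wells on the same plate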
Conditions: HUVEC TNFalpha-induced E-selectin immunofluorescence imaging, at 2 µM; measured here: cell number, toxicity
Numbers only, in %.

Please fill in: nuclei count reported for "CCN(CC)S(=O)(=O)c1ccc(F)c(C(=O)NCCC(C)C)c1" = 99.2

# map each compound to its nuclei count
1. O=C(O)CC1NC(=O)N(c2ccccc2)C1=O (stereo unspecified)
2. CCOC(=O)N1CCC(N2C(=O)c3ccccc3C2Nc2cc(Cl)c(OC)cc2OC)CC1 (stereo unspecified)
3. CC1(C)CC(=O)CC(=Nc2ccc(C(=O)O)cc2)C1
4. CC(=O)Nc1c(C(=O)O)[nH]c2ccccc12
5. CC1Cc2ccccc2N1S(=O)(=O)c1cccc(C(=O)OCC(=O)NC2CCS(=O)(=O)C2)c1 (stereo unspecified)

1: 114; 2: 114; 3: 112; 4: 104; 5: 112
